# MEASUREMENT_TARGET: T1, purified recombinant MHC II protein, allele DRB1*1101 (human)
# T1 construct: bought from Benaroya Research Institute; also called MHC-II DR molecule
# ASSAY_NAME: MHC II competition binding assay
VALUE_KIND: pIC50
Remember, pIC50 is on a log scale: it is -log10 of the molar concentration.

In: Need pIC50 of GVHRQWYMHMSKYNVKVGD (synthetic mutated peptide of the lysostaphin catalytic domain; also called L83M) [cluster 3 peptide with Leu83Met] , thanks.
Out: 6.96
